The origin of these recorded values is patent US10442803B2.

- TEST SYSTEM: BRD4-BD1 (Homo sapiens (Human))
- TEST SUMMARY: BRD4 AlphaScreen assay (BRD4-BD1)
- Format: binding
- MEASUREMENT CONDITIONS: H4Ac4 peptide, read-out: BRD4 BD-1 enzyme IC50
- Procedure: BRD4-BD1 and BRD4-BD2 assays were conducted in white 384-well polystyrene plate in a final volume of 20 μL for BD1 and 40 μL for BD2. Inhibitors were first serially diluted in DMSO and added to the plate wells before the addition of other reaction components. The final concentration of DMSO in the assay was 1.25% (BD1) and 0.83% (BD2). […] After plate sealing, the plate was incubated in the dark at room temperature for 75 min. before reading on a PHERAstar FS plate reader (BMG Labtech). […]
pIC50: −log10 of the molar value. Structures can show the parent of a compound that is named as a salt.
Let's look at some compounds and their measured pIC50.
QUANTITY MEASURED: pIC50

[
  {
    "COMPOUND": "CCN1CC(CC#N)(n2ccc(-c3cc4c(ccc5nnc(C)n54)n3Cc3ccccc3)n2)C1",
    "TEST SYSTEM": "BRD4-BD1 (Homo sapiens (Human))",
    "QUANTITY MEASURED": "pIC50",
    "RESULT": "≥ 7.00"
  },
  {
    "COMPOUND": "Cc1nnc2ccc3c(cc(-c4nnco4)n3Cc3cccc(Cl)c3)n12 [Example 141, trifluoroacetate salt]",
    "TEST SYSTEM": "BRD4-BD1 (Homo sapiens (Human))",
    "QUANTITY MEASURED": "pIC50",
    "RESULT": "≥ 7.00"
  },
  {
    "COMPOUND": "Cc1cc2c(ccc3nnc(C)n32)n1[C@@H](C)c1ccccc1 (single isomer, unassigned)",
    "TEST SYSTEM": "BRD4-BD1 (Homo sapiens (Human))",
    "QUANTITY MEASURED": "pIC50",
    "RESULT": "6.00 to 7.00"
  },
  {
    "COMPOUND": "Cc1nc2c(cc(NC3CCN(C)CC3)c3nnc(C)n32)n1Cc1ccccc1",
    "TEST SYSTEM": "BRD4-BD1 (Homo sapiens (Human))",
    "QUANTITY MEASURED": "pIC50",
    "RESULT": "≥ 7.00"
  }
]
